- system tested: Protein mono-ADP-ribosyltransferase TIPARP (Homo sapiens) (UniProt Q7Z3E1)
- Sequence (Q7Z3E1 whole entry): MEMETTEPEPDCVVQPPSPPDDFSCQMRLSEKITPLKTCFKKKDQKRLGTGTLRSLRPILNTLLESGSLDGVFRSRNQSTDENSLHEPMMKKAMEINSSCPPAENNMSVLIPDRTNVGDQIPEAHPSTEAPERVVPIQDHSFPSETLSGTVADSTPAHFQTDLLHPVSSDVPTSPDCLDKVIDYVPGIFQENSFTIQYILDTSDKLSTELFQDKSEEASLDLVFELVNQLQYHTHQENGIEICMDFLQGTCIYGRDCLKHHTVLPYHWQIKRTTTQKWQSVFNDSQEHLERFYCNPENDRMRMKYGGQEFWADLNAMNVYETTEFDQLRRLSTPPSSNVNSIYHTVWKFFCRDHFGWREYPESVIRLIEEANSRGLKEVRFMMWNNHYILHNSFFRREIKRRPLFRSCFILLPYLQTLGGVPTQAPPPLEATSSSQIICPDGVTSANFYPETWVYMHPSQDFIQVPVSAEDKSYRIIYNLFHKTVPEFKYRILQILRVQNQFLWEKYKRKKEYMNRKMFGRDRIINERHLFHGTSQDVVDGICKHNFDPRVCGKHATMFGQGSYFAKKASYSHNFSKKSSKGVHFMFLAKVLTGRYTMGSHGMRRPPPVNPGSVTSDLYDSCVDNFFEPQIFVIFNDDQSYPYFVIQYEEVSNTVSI
- procedure summary: Inhibition of human recombinant N-terminal FLAG tagged PARP7 (400 to 657 end residues) at 100 nM incubated for 1 hr by ELISA assay relative to control
property measured: inhibition (%)

record smiles: C[C@@H](CN1CC(C(=O)N2CCN(c3ncc(C#N)cn3)CC2)C1)Nc1cn[nH]c(=O)c1C(F)(F)F
inhibition / %: 71.5

1: C[C@@H](CN1CC(C(=O)N2CCN(c3ncccn3)CC2)C1)Nc1cn[nH]c(=O)c1C(F)(F)F
2: C[C@@H](CN1CC(C(=O)N2CCN(c3ncc(C(F)(F)F)cn3)CC2)C1)Nc1cn[nH]c(=O)c1C(F)(F)F
3: C[C@@H](CN1CCC(C(=O)N2CCN(c3ncc(C(F)(F)F)cn3)CC2)CC1)Nc1cn[nH]c(=O)c1C(F)(F)F
Descending sort on inhibition required. Reply with the labels, ordered as the question asks.
2, 3, 1
